Catalogue of inhibition at 0.03 µM readings, one per entry.
- target: rat adrenergic α1B receptor (Rattus norvegicus, UniProt P15823)
- Construct: rat adrenergic α1B receptor obtained from Wistar Rat liver; from tissue; host or cells: Wistar rat liver
- Sequence (P15823 whole entry): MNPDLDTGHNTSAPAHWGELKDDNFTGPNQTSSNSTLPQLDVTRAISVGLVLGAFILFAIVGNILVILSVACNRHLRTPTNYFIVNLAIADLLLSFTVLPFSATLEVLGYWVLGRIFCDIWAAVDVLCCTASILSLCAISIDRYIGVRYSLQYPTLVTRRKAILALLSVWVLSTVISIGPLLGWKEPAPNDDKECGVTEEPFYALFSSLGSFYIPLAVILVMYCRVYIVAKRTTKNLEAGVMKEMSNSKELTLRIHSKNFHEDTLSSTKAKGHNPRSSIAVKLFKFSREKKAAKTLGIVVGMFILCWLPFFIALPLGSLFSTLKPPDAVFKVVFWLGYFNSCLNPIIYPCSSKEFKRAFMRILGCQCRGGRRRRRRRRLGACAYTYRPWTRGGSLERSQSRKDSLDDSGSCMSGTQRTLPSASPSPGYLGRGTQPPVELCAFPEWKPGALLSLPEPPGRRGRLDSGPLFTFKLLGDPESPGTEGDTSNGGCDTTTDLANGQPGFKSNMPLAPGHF
- method-summary: Radioligand binding, adrenergic α1B ([3H]Prazosin)
- conditions: read-out: Percentage inhibition of ligand binding, Adrenergic α1B (0.03 μM), compound at 0.03 μM; [3H]Prazosin; repeat datapoints each shown
- Experimental: To evaluate in radioligand binding assays the activity of compounds of the invention, rat adrenergic α1B receptor obtained from Wistar Rat liver (Garcia-S'ainz, J. et al, Biochem. Biophys. Res. Commun. 186:760, 1992; Michel, A. et al, Br. J. Pharmacol. 98:883, 1989) in a modified Tris-HCl buffer (50 mM Tris-HCl buffer, pH 7.4, 0.5 mM EDTA) was used. […] Receptor proteins were filtered and washed, the filters were then counted to determine [^3H]Prazosin specifically bound. […]
API: value field is a number in %; no unit string.

>  <compound>
CC(O)(Cn1c2c(c3cc(Cl)cnc31)C1CCCN1CC2)c1cccnc1 (single isomer, unassigned) [IV-210a]

>  <number>
43

$$$$
>  <compound>
Cc1ccc2c(c1)c1c(n2CC(C)(O)c2ccc(C)nc2)CN(C)CC1 (single isomer, unassigned) [196a]

>  <number>
30

$$$$
>  <compound>
CCN1CCc2c(c3cc(C)ccc3n2CC(O)c2ccc(C)cc2)C1 (centres unmarked)

>  <number>
37

$$$$
>  <compound>
Cc1ccc2c(c1)c1c(n2CC(C)(O)c2cccnc2)CNCC1 (single isomer, unassigned) [128a]

>  <number>
14

$$$$

Sample `CN1CCc2c(c3cccc(Cl)c3n2CCc2ccccc2)C1` — what was its inhibition at 0.03 µM?
34

Sample Cc1ccc2c(c1)c1c(n2CC(C)(O)c2ccc(C)nc2)CCN2CCCC12 (single isomer, unassigned) [II-128b] — what was its inhibition at 0.03 µM?
56

Sample Cc1ccc2c(c1)c1c(n2CC(O)c2ccc(C(N)=O)cc2)CCN(C)C1 (centres unmarked) — what was its inhibition at 0.03 µM?
46

Sample Cc1ccc2c(c1)c1c(n2CC(C)(O)c2ccc(F)cc2)CCN2CCCC12 (single isomer, unassigned) [II-121a] — what was its inhibition at 0.03 µM?
90

* * *

- target: rat adrenergic α1B receptor (Rattus norvegicus, UniProt P15823)
- Construct: rat adrenergic α1B receptor obtained from Wistar Rat liver; from tissue; host or cells: Wistar rat liver
- method-summary: Radioligand binding, adrenergic α1B ([3H]Prazosin)
- conditions: read-out: Percentage inhibition of ligand binding, Adrenergic α1B (0.1 μM), compound at 0.1 μM; [3H]Prazosin; repeat datapoints each shown
endpoint: inhibition at 0.1 µM

# count of solved cases: 5
>  <compound>
Cc1cc2c3c(n(CC(C)(O)c4cccnc4)c2cc1CO)CCN(C)C3 (stereo not drawn)

>  <target>
rat adrenergic α1B receptor (Rattus norvegicus, UniProt P15823)

>  <inhibition at 0.1 µM>
2%

$$$$
>  <compound>
Cc1ccc2c(c1)c1c(n2CCc2ccccc2)CCN(C)C1

>  <target>
rat adrenergic α1B receptor (Rattus norvegicus, UniProt P15823)

>  <inhibition at 0.1 µM>
83%

$$$$
>  <compound>
Cc1ccc2c(c1)c1c(n2CC(CCN)c2ccncc2)CCN(C)C1 (stereo not drawn)

>  <target>
rat adrenergic α1B receptor (Rattus norvegicus, UniProt P15823)

>  <inhibition at 0.1 µM>
11%

$$$$
>  <compound>
CN1CCc2c(c3ncccc3n2CC(O)c2ccncc2)C1 (stereo not drawn)

>  <target>
rat adrenergic α1B receptor (Rattus norvegicus, UniProt P15823)

>  <inhibition at 0.1 µM>
5%

$$$$
>  <compound>
Cc1ccc2c(c1)c1c(n2CC(C)(N)c2cccnc2)CCN(C)C1 (single isomer, unassigned) [149a]

>  <target>
rat adrenergic α1B receptor (Rattus norvegicus, UniProt P15823)

>  <inhibition at 0.1 µM>
12%

$$$$

Below: the item to evaluate.
Sample `COc1ccc(/C(C)=C/n2c3c(c4cc(C)ccc42)CCN(C)CC3)c(F)c1` — what was its inhibition at 0.1 µM?
95%

* * *

- target: human recombinant adrenergic α2B receptor (Homo sapiens, UniProt P18089)
- Construct: expressed in transfected cells; host or cells: CHO-K1
- Sequence (P18089 1-450): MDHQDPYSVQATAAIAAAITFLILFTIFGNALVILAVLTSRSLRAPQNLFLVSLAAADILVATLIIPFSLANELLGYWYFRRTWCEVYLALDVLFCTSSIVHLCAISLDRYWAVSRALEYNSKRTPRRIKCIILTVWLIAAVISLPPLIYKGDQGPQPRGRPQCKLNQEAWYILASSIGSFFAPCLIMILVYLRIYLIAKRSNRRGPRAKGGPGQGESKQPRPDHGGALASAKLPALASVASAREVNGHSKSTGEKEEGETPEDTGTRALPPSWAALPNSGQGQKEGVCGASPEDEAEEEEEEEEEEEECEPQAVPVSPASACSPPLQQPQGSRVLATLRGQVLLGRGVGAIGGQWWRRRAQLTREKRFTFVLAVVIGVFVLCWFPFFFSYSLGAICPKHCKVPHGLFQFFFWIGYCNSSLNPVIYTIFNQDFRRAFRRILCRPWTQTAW
- method-summary: Radioligand binding, adrenergic α2B ([3H]Rauwolscine)
- conditions: compound at 0.03 μM; [3H]Rauwolscine; repeat assays, each datapoint shown; read-out: Percentage inhibition of ligand binding, Adrenergic α2B
- Experimental: To evaluate in radioligand binding assays the activity of compounds of the invention, human recombinant adrenergic α2B receptor expressed in Chinese hamster ovary (CHO) K1 cells (Uhlen, S. et al, Eur. J. Pharmacol. 343(1):93, 1998) in a modified Tris-HCl buffer (50 mM Tris-HCl, pH 7.4, 12.5 mM MgCl2, 1 mM EDTA, 0.2% BSA) was used. […] Receptor proteins were filtered and washed, the filters were then counted to determine [3H]Rauwolscine specifically bound. […]
Parameter threshold = 60%. Response is YES when inhibition at 0.03 µM meets or exceeds it, else NO.

Before answering, review these 8 worked examples.
>  <compound>
CN1CCc2c(c3cc(Cl)ccc3n2CC(C)(O)c2cccnc2)C1 (stereo not shown) [31b]

>  <label-class>
NO

$$$$
>  <compound>
CC(O)c1ccc2c(c1)c1c(n2CC(O)c2ccncc2)CCN(C)C1 (stereo not shown)

>  <label-class>
NO

$$$$
>  <compound>
Cc1ccc2c(c1)c1c(n2CC(OC(=O)C(C)C)c2ccncc2)CCN(C)C1 (single isomer, unassigned) [54a]

>  <label-class>
YES

$$$$
>  <compound>
Cc1ccc2c(c1)c1c(n2/C=C/c2ccncc2)CCNC1

>  <label-class>
YES

$$$$
>  <compound>
Cc1ccc2c(c1)c1c(n2CC(O)c2cc[n+]([O-])cc2)CCN(C)C1 (stereo not shown) [69a]

>  <label-class>
NO

$$$$
>  <compound>
Cc1ccc2c(c1)c1c(n2CC(C)(O)c2ccc[n+]([O-])c2)CCN(C)C1 (single isomer, unassigned) [56a]

>  <label-class>
NO

$$$$
>  <compound>
Cc1ccc2c(c1)c1c(n2CC(O)c2ccncc2)CCN(C)CC1 (single isomer, unassigned) [13b]

>  <label-class>
YES

$$$$
>  <compound>
Cc1ccc2c(c1)c1c(n2CC(O)c2ccncc2)CCN(C)C1 (stereo not shown)

>  <label-class>
YES

$$$$

Could you please find out whether CCOC(=O)N1CCc2c(c3cc(C)ccc3n2CC(O)c2ccncc2)C1 (stereo not shown) has inhibition at 0.03 µM that meets 60% or exceeds it?
NO

* * *

- target: human recombinant adrenergic α2B receptor (Homo sapiens, UniProt P18089)
- Construct: expressed in transfected cells; host or cells: CHO-K1
- Sequence (P18089 1-450): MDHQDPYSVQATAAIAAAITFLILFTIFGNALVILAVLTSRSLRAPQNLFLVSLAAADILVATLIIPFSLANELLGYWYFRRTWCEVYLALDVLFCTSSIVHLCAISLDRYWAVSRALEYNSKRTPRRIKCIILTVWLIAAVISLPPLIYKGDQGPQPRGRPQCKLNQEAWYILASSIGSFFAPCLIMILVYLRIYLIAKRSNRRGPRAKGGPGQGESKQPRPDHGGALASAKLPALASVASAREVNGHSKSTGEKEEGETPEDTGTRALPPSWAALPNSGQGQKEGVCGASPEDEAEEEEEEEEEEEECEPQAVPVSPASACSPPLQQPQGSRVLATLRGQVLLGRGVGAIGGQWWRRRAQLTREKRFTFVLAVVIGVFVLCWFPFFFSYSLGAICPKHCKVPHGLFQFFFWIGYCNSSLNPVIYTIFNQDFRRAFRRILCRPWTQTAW
- method-summary: Radioligand binding, adrenergic α2B ([3H]Rauwolscine)
- conditions: compound at 0.03 μM; [3H]Rauwolscine; repeat datapoints each shown; 0.03 µM
Parameter threshold = 90%. Response is Satisfied when Percentage inhibition of ligand binding, Adrenergic α2B (0.03 μM) meets or exceeds it, else Not satisfied.

Before answering, review these 5 worked examples.
>  <compound>
Cc1ccc2c(c1)c1c(n2CC(C)(O)c2cccnc2)CCN2CCCC12 (single isomer, unassigned) [II-127b]

>  <label-class>
Satisfied

$$$$
>  <compound>
Cc1ccc2c(c1)c1c(n2CC(O)c2ccc(F)cc2F)CCN(C)CC1 (single isomer, unassigned) [172b]

>  <label-class>
Satisfied

$$$$
>  <compound>
Cc1cnc2c(c1)c1c(n2CC(C)(O)c2ccc(F)cc2)CCN2CCCC12 (single isomer, unassigned) [II-149d]

>  <label-class>
Not satisfied

$$$$
>  <compound>
Cc1ccc2c(c1)c1c(n2CC(OC(=O)C(C)(C)C)c2ccncc2)CCN(C)C1 (single isomer, unassigned) [130a]

>  <label-class>
Satisfied

$$$$
>  <compound>
C/C(=C\n1c2c(c3cc(C)ccc31)C1CCCCN1CC2)c1ccc(F)cc1 (single isomer, unassigned) [199b]

>  <label-class>
Not satisfied

$$$$

Could you please find out whether `C/C(=C\n1c2c(c3cc(Cl)ccc31)CN(C)CC2)c1ccncc1` has Percentage inhibition of ligand binding, Adrenergic α2B (0.03 μM) that meets 90% or exceeds it?
Not satisfied

Could you please find out whether Cc1ccc2c(c1)c1c(n2CC(C)(O)c2ccc(F)cc2)CCN2CCCC12 (single isomer, unassigned) [II-121a] has Percentage inhibition of ligand binding, Adrenergic α2B (0.03 μM) that meets 90% or exceeds it?
Satisfied

Origin of measurements: patent US8791132B2
